Reported IC50 values for a set of compounds
tested on: A549; assay: A549 assay: screening of cancer cell growth inhibiting compound; format: cell-based; conditions: Homo sapiens, 72 h; A549 cells, three days, WST-8; read-out: A549 IC50

compound: CCCC(C)Nc1cc(NCC2CCOCC2)c2ncc(-c3ccc(C(=O)NC4CC4)cc3)n2n1 (stereo not shown)
system.tested: A549
IC50: 50 to 500 nM
//
compound: CC1(Nc2cc(NCC3CCOCC3)c3ncc(-c4ccc(C(=O)NC5CC5)cc4)n3n2)CCS(=O)(=O)C1 (stereo not shown)
system.tested: A549
IC50: 50 to 500 nM
//
compound: COc1ccc(Oc2cc(NCC3CCOCC3)c3ncc(-c4ccc(C(=O)NC5CC5)cc4)n3n2)c(F)c1
system.tested: A549
IC50: ≤ 50 nM
//
compound: O=C(NC1CC1)c1ccc(-c2cnc3c(NCC4CCS(=O)(=O)CC4)cc(NC4CCCCC4)nn23)cc1
system.tested: A549
IC50: 500 to 1000 nM
//
compound: CC1(Nc2cc(NCC3CCOCC3)c3ncc(-c4ccc(C(=O)NC5CC5)cc4)n3n2)CCCCC1
system.tested: A549
IC50: ≤ 50 nM
//
compound: Cc1nc(C)c(-c2cc(NCC3CCOCC3)c3ncc(-c4ccc(C(=O)NC5CC5)cc4)n3n2)s1
system.tested: A549
IC50: 500 to 1000 nM
//
compound: COCC(C)Nc1cc(NCC2CCOCC2)c2ncc(-c3ccc(C(=O)NC4CC4)cc3)n2n1 (stereo not shown)
system.tested: A549
IC50: 50 to 500 nM
